test.context: in tert-butanol, 308.15 K
assay.readout: solubility (mole fraction)
One number for each entry.

Request: Which solubility (mole fraction) reading was recorded for the compound Nc1ccnc(=O)[nH]1 ?
Result: 0.00036

* * *

test.context: in sec-butanol, 313.15 K
assay.readout: solubility (mole fraction)
Give bare numbers.

Request: Which solubility (mole fraction) reading was recorded for the compound Nc1ccnc(=O)[nH]1 ?
Result: 0.000234

* * *

test.context: in ethanol, 288.15 K
assay.readout: solubility (mole fraction)
Answers are plain numbers.

Request: Which solubility (mole fraction) reading was recorded for the compound Nc1ccnc(=O)[nH]1 ?
Result: 0.000339

* * *

test.context: in ethanol, 293.15 K
assay.readout: solubility (mole fraction)
One number for each entry.

Request: Which solubility (mole fraction) reading was recorded for the molecule Nc1ccnc(=O)[nH]1 ?
Result: 0.000348
